experiment-summary: In vivo determination of plasma and brain exposure (AUC) after oral dosing
measurement-setup: mouse, brain/plasma; normal mice, oral, dose 51 μmole/kg; read-out: B/P Ratio AUC
quantity-kind: Kp

smiles	measurement
COc1ccc2c(C)cc(NN=Cc3ccnc4ccccc34)nc2c1	5.3

---

experiment-summary: In vivo determination of plasma and brain exposure (AUC) after oral dosing
measurement-setup: mouse, brain/plasma; normal mice, oral, dose 421 μmole/kg; read-out: B/P Ratio AUC
quantity-kind: Kp

smiles	quantity-kind	measurement
COc1ccc2c(C)cc(NN=Cc3ccnc4ccccc34)nc2c1	Kp	2.5

---

experiment-summary: In vivo determination of plasma and brain exposure (AUC) after oral dosing
measurement-setup: mouse, brain/plasma; normal mice, oral, dose 831 μmole/kg; read-out: B/P Ratio AUC

smiles	Kp
COc1ccc2c(C)cc(NN=Cc3ccnc4ccccc34)nc2c1	5.7

---

experiment-summary: In vivo determination of plasma and brain exposure (AUC) after oral dosing
measurement-setup: mouse, brain/plasma; normal mice, oral, dose 1472 μmole/kg; read-out: B/P Ratio AUC

smiles	Kp
COc1ccc2c(C)cc(NN=Cc3ccnc4ccccc34)nc2c1	5.7

---

experiment-summary: In vivo determination of plasma and brain exposure (AUC) after oral dosing
measurement-setup: mouse, brain/plasma; normal mice, oral, dose 3024 μmole/kg; read-out: B/P Ratio AUC

smiles	Kp
COc1ccc2c(C)cc(NN=Cc3ccnc4ccccc34)nc2c1	7.3

---

experiment-summary: In vivo determination of plasma and brain exposure (AUC) after oral dosing
measurement-setup: mouse, brain; normal mice, oral, three highest doses; read-out: brain terminal half-life

smiles	half-life
COc1ccc2c(C)cc(NN=Cc3ccnc4ccccc34)nc2c1	5 to 7 h
